Biological target: T1, human TfR (cell-bound) (human, UniProt P02786 1-760)
T1 construct: Endogenous receptor on hCMEC-D3 cells (stated); also called hTFR; human transferrin receptor on hCMEC-D3 cells
T1 sequence (P02786 whole entry): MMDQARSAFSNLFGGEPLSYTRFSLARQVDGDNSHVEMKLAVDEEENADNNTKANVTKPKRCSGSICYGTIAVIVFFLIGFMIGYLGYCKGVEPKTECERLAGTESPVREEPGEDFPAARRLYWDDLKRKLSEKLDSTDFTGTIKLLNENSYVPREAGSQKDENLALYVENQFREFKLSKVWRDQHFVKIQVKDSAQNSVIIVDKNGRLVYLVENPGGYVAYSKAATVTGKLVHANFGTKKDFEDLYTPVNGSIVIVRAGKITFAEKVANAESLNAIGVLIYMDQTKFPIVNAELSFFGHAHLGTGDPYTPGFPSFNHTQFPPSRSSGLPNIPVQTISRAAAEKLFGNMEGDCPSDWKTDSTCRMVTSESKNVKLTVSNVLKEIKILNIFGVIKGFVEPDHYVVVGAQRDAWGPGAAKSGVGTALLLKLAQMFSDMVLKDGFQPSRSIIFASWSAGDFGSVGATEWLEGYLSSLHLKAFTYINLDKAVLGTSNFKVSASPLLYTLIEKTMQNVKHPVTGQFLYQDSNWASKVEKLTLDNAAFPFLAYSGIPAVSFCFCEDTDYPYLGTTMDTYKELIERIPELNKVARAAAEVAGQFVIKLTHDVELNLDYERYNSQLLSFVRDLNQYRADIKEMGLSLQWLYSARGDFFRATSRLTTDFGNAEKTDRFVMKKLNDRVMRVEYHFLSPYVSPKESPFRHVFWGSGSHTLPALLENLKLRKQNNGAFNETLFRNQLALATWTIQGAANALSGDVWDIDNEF
Assay: flow cytometry on hCMEC-D3 cells (endogenous human TfR), on ice, PE-labeled secondary
Below is a list of entries, each paired with its recorded EC50 value.
Measurement Kind: EC50 (nM)

>>> observed_value("TBP1 (TBD1 Fab-hIgG4PAA Fc) (antibody, V domains shown) VH: EVQLVESGGGLVKPGGSLRLSCVASGFTFSSYSMNWVRQAPGKGLEWVSSISRSSSYIYYADSVKGRFTISRDNAKNSLYLQMNSLRAEDTAVYYCAREHGYSNSDAFDIWGQGTLVTVSS VL: DIQMTQSPSAMSASVGDRVTITCRASQGISNYLAWFQQKPGKVPKRLIYAASSLQSGVPSRFSGSGSGTEFTLTISSLQPEDFATYYCLQHNSYPRTFGQGTKVEIKR")
0.47
>>> observed_value("TBP6 (TBD6 Fab-hIgG4PAA Fc) (antibody, V domains shown, Fab-Fc format, one HC and one LC) VH: EVQLVESGGGLVQPGGSLRLSCAASGFTFRTYWMHWVRQAPGKGLVWVSRINSDGSRTNYADSVKGRFTISRDNAKNTLYLQMNSLRAEDTAVYYCARSSYAFDVWGQGTLVTVSS VL: DIVMTQTPLSLPVTPGEPASISCRSSQSLLDSDDGSTYLDWYLQKPGQSPQLLIYLLSNRASGVPDRFSGSGSGTDFTLKISRVEAEDVGVYYCMQRIEFPLTFGGGTKVEIKR")
1.2
>>> observed_value("TBP3 (TBD3 Fab-hIgG4PAA Fc) (antibody, V domains shown, Fab-Fc format, one HC and one LC) VH: EVQLVESGGGLVKPGGSLRLSCVASGFTFSSYSMNWVRQAPGKGLEWVSSISRSSSYIYYADSVKGRFTISRDNAKNSLYLQMNSLRAEDTAVYYCARIHGYSNSDAFDIWGQGTLVTVSS VL: DIQMTQSPSAMSASVGDRVTITCRASQGISHYLVWFQQKPGKVPKRLIYAASSLQSGVPSRFSGSGSGTEFTLTISSLQPEDFATYYCLQHNSYPRTFGQGTKVEIKR")
0.14
>>> observed_value("TBP5 (TBD5 Fab-hIgG4PAA Fc) (antibody, V domains shown, Fab-Fc format, one HC and one LC) VH: EVQLVESGGGLVQPGGSLRLSCAASGFTFRTYWMHWVRQAPGKGLLWVSRINGDGSRTNYADSVKGRFTISRDNAKKTLYLQMNSLRAEDTAVYFCARSSYAFDVWGQGTMVTVSS VL: DVVMTQTPLSLPVTPGEPASISCRSSQSLLDSDDGSTYLDWYLQKPGQSPQLLIYLLSNRASGVPDRFSGSGSGTVFTLKISSVEAADVGVYYCMQRIEFPLTFGGGTKVEIKR")
4.83
